- target.or.test.system: Nonstructural protein 1 (Influenza A virus, UniProt Q194T2)
- Sequence (Q194T2 whole entry): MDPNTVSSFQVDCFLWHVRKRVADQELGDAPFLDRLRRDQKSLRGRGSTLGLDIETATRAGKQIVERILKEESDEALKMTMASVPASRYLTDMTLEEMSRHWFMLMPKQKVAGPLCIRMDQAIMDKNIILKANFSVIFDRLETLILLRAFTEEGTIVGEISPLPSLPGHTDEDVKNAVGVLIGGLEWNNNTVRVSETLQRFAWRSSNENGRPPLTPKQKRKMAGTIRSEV
- Type: functional, Influenza A virus (A/California/07/2009(H1N1))
The source made the active and inactive calls.
measurement.name: IC50

Query: Bench note: what IC50 did `Oc1ccc(/C=N/NC(=S)Nc2cccnc2)c(O)c1` show?
Reply: 1.82 µM (active)

Query: Item `Oc1ccc(/C=N/NC(=S)Nc2cccnc2)c(O)c1O` has what recorded IC50?
Reply: 3.58 µM (active)

Query: Which IC50 value is on record for `CCOC(=O)N1CCN(c2cc(NCCC(=O)O)c3c4c(onc24)-c2ccccc2C3=O)CC1` ?
Reply: 20.3 µM (active)

Query: Name the recorded IC50 for `O=[N+]([O-])c1cc(/C=N/Nc2nc(N3CCCCC3)nc(N3CCCCC3)n2)ccc1O` .
Reply: > 100 µM (active)

Query: So what's the measured IC50 for this one? `O=[N+]([O-])c1cc(Br)c2nsnc2c1N1CCOCC1`
Reply: 27.5 µM (active)

Query: Which IC50 is reported for this compound? CN1CCc2c(sc3c2C(=O)NC(c2ccccn2)N3)C1 (stereo unspecified)
Reply: 13.7 µM (active)

----------
- target.or.test.system: UniProtKB P00735
- run.description: thrombin protease inhibitors – biochemical, fluorescence polarization, uHTS hits, dose response (AID 602369)
- Assay type: functional
Active and inactive are the calls of the source.
measurement.name: IC50

Query: Consider the molecule shown here: C/C(=N\NC(=O)c1ccc(OC2OCCOC2Oc2ccc(C(=O)N/N=C(\C)c3ccncc3)cc2)cc1)c1ccncc1 (stereo unspecified) What is its recorded IC50?
Reply: 41 µM (active)

Query: Would you mind telling me what IC50 value was observed for `COc1cccc(-n2c(SCC(N)=O)nc3ccccc3c2=O)c1` ?
Reply: 58.2 µM (active)

Query: What measured IC50 goes with `N#Cc1c(-c2ccco2)cc(-c2ccc(F)cc2)nc1N` ?
Reply: 20.9 µM (active)

Query: Reported IC50 for `Cc1ccc(-c2nnn3c2nc(NCCc2ccc(S(N)(=O)=O)cc2)c2ccccc23)cc1` : what is it?
Reply: 77.4 µM (active)

Query: Consider the molecule shown here: `Oc1nc(Nc2ccc(Cl)cc2Cl)sc1/C=C1\C=Nc2ccccc21` What is its recorded IC50?
Reply: 38.3 µM (active)

Query: Reported IC50 for `COc1cc(N(C)C)ccc1C=c1c2ccccc2n2c1cc(-c1ccccc1)[n+]2C` : what is it?
Reply: 11.8 µM (active)

----------
- target.or.test.system: Luciferin 4-monooxygenase (Photinus pyralis)
- Sequence (P08659 whole entry): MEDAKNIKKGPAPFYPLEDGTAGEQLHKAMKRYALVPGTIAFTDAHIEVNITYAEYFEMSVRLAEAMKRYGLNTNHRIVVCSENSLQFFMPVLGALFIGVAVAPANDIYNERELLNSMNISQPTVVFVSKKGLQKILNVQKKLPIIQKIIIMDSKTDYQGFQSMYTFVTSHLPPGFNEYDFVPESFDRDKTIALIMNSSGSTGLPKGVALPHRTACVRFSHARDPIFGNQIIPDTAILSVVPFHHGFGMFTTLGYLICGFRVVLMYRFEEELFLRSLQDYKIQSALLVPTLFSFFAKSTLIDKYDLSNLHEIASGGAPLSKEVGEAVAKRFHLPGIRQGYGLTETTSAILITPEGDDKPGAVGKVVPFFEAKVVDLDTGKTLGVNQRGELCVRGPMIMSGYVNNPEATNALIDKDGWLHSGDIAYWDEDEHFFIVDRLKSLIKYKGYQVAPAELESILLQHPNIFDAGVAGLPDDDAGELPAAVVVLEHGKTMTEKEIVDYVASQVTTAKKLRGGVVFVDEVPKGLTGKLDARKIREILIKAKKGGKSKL
- run.description: inhibition of purified Photinus pyralis luciferase – biochemical, luminescence, dose response (AID 1891)
The source made the active and inactive calls.
Kindly state EC50 for each of the entries shown.

Query: # lookup: EC50 of CCOc1ccc(CN(C(=O)c2oc3ccccc3c2C)C2CCS(=O)(=O)C2)cc1 (stereo not given)
Reply: 28.3 µM (active)

Query: For the molecule `COc1ccc(N2CCN(S(=O)(=O)c3c(C)nc4sccn4c3=O)CC2)cc1` , what EC50 is on record?
Reply: > 112 µM (not active)

Query: Any idea what EC50 was measured for `CC1(C)Cc2c(sc3nc(NCCN4CCOCC4)n4ncnc4c23)CO1` ?
Reply: > 112 µM (not active)

Query: Reported EC50 for `CCNC(=O)[C@H]1O[C@@H](n2cnc3c(N)nc(NCCc4ccc(CCC(=O)O)cc4)nc32)[C@H](O)[C@@H]1O` : what is it?
Reply: > 112 µM (not active)

Query: Fill in the blank: the reported EC50 of `O=c1oc(Nc2ccc(F)cc2)nc2ccccc12` is ____.
Reply: 8.06 µM (active)

Query: Looking for the measured EC50 of `CCCCC(=O)OCC(=O)c1[nH]c(C)c(C(C)=O)c1C` , can you help?
Reply: > 112 µM (not active)

Query: Can you share its EC50? I mean this molecule: `O=C(CN1C(=O)c2cccc3cccc1c23)N1CCN(c2ccc(F)cc2)CC1`
Reply: > 112 µM (not active)

Query: State the recorded EC50 for this entry: `Cc1c(C(=O)N2CCCCC2)c(S(=O)(=O)N(C)Cc2ccccc2)c(C)n1C`
Reply: > 112 µM (not active)

Query: Fill in: EC50 of `O=C(Cn1cc(C(=O)C(F)(F)F)c2ccccc21)NCc1ccco1` is ___
Reply: > 112 µM (not active)

Query: For the molecule `CCCCc1ccc(Nc2nc(N3CCOCC3)nc(N3CCOCC3)n2)cc1` , what EC50 is on record?
Reply: > 112 µM (not active)

Query: May I ask what EC50 has been recorded for CC(Oc1ccc(F)cc1)C(=O)Nc1ccccc1N1CCCCC1 (stereo not given) ?
Reply: 27.3 µM (active)

Query: Look up EC50 for this molecule: CCOC(=O)C1=C(CNCc2ccc(F)cc2)NC(=O)NC1c1cccc([N+](=O)[O-])c1 (stereo not given)
Reply: > 112 µM (not active)

Query: Name the reported EC50 value associated with the molecule `COc1ccc(C(=O)Nc2ccc(N3CCOCC3)cc2)cc1OC`
Reply: 24.2 µM (active)

Query: Given the entry `CCn1c(=O)c([N+](=O)[O-])c(NCCc2ccc(OC)c(OC)c2)c2ccccc21` , report its measured EC50.
Reply: > 112 µM (not active)

Query: # input molecule: COc1cccc(-c2nc(C[S+]([O-])CC(=O)NCCc3ccc(C)cc3)c(C)o2)c1 (stereo not given) ; wanted: its EC50
Reply: > 112 µM (not active)

----------
- target.or.test.system: Peroxisome proliferator-activated receptor gamma/Nuclear receptor coactivator 3 (Homo sapiens, UniProt P37231)
- Sequence (P37231 whole entry): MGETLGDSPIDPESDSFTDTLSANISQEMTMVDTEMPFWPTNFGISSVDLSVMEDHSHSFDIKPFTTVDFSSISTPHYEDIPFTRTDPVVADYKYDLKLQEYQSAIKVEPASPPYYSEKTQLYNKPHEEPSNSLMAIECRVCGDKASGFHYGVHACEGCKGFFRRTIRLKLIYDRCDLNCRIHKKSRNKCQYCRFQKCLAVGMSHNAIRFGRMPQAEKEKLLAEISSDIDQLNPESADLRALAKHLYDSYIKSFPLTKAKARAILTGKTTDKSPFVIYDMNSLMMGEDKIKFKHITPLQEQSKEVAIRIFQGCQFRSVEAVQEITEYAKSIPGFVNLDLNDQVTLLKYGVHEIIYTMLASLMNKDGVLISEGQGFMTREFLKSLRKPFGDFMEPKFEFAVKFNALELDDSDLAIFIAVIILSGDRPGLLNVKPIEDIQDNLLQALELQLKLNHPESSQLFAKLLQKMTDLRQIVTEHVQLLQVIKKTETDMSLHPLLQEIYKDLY
- Sequence (Q9Y6Q9 whole entry, further chain): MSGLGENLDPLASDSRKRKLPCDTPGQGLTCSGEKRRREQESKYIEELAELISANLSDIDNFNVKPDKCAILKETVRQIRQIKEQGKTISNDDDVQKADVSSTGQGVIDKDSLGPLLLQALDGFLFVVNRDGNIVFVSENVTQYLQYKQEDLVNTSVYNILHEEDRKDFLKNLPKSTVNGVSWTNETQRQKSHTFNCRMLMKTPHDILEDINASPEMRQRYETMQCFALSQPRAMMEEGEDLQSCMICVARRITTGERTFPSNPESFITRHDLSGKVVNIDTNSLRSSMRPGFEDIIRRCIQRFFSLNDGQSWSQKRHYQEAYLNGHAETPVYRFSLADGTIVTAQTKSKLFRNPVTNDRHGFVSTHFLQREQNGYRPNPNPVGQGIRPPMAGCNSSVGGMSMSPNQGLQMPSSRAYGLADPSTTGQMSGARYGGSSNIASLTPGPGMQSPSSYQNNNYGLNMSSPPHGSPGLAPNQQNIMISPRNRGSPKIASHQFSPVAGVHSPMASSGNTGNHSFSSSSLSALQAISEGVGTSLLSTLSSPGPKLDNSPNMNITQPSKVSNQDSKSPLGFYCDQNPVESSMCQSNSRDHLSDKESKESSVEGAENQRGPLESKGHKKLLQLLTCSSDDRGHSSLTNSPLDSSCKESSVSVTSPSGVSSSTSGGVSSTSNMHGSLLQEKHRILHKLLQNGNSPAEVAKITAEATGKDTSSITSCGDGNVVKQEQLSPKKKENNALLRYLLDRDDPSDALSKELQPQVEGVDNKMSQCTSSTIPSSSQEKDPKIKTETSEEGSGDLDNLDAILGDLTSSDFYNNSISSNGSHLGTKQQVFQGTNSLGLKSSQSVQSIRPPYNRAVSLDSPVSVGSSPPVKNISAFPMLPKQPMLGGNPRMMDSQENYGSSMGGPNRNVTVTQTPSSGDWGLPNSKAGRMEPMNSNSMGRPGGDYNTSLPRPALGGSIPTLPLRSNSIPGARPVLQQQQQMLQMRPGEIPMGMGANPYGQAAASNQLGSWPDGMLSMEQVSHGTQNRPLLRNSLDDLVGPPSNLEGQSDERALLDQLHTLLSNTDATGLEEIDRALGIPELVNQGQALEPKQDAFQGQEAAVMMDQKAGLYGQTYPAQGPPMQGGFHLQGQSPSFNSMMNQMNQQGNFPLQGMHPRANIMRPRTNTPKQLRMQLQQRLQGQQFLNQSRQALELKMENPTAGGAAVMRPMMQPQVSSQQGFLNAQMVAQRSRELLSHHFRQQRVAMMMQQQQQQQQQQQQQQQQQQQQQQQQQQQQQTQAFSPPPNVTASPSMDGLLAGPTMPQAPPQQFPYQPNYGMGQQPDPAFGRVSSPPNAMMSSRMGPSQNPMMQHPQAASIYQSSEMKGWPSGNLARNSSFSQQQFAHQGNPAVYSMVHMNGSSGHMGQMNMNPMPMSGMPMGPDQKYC
- run.description: TR-FRET dose response biochemical High Throughput Screening assay for agonists of the steroid receptor coactivator 3 (SRC-3) recruitment by the peroxisome proliferator-activated receptor gamma (PPAR gamma): non-selective agonists. [Related pubchem assays: 1301 (Confirmation screen.), 1048 (Primary screen.)]
- Assay type: functional
Active and inactive are the calls of the source.
Would you kindly list EC50 for each of these compounds?

Query: Look up EC50: `O=C(OCn1ncc(Br)c(Br)c1=O)c1ccc(F)cc1`
Reply: > 79.4 µM (not active)

Query: Fill blank: measured EC50 of the compound `COC(=O)c1sccc1-c1ccc(/C=N/OC(=O)c2ccccc2)o1` is ____.
Reply: > 79.4 µM (not active)

Query: Value lookup for EC50; key = `O=C(Cc1cccs1)NCCSc1c(-c2ccc(Cl)cc2)[nH]c2ccccc12`
Reply: > 2.94 µM (active)

Query: // lookup EC50 for `Fc1ccc(COc2cccc(-c3nnc(S)o3)c2)cc1`
Reply: > 79.4 µM (not active)

----------
- target.or.test.system: Genome polyprotein (dengue virus type 2, UniProt P29990)
- Sequence (P29990 2492-3391 limits assumed): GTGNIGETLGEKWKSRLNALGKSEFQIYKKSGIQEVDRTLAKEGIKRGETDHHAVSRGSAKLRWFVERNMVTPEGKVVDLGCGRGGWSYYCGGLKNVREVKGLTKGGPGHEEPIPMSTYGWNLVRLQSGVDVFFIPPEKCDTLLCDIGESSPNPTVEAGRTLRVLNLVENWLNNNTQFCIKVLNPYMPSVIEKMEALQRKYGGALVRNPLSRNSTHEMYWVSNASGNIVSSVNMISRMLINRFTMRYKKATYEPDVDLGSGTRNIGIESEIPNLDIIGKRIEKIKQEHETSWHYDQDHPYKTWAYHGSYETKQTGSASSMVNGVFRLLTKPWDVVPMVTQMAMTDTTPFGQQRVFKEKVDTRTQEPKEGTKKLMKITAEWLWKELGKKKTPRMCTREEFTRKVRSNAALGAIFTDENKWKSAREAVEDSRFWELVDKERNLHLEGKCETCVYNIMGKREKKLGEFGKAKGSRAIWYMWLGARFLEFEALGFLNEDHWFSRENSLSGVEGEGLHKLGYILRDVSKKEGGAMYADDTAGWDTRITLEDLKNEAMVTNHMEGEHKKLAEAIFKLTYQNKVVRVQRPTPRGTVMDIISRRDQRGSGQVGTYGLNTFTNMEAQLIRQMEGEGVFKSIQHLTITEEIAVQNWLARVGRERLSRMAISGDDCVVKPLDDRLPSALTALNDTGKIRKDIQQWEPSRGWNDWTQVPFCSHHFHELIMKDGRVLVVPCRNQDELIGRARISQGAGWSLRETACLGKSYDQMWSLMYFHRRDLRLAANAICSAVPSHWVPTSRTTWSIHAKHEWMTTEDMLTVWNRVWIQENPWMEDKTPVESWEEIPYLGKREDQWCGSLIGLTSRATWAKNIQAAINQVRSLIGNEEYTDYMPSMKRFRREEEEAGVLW
- run.description: flavivirus cap methylation enzyme inhibition – biochemical, confirmation dose response, primary screen (AID 588689)
- Type: functional
Active and inactive are the calls of the source.
Answer each item with its documented IC50.

Query: Please state recorded IC50 (tested on Genome polyprotein (dengue virus type 2, UniProt P29990)) of `Oc1ccc(/C=N/NC(=S)Nc2cccnc2)c(O)c1O`
Reply: 24.4 µM (active)

Query: Write down the reported IC50 of CCC(CNc1cc(OC)cc2cccnc12)NC1CCCCC1 (centres undefined) , test system: Genome polyprotein (dengue virus type 2, UniProt P29990).
Reply: 39.2 µM (active)

Query: Checklist item: IC50 tested on Genome polyprotein (dengue virus type 2, UniProt P29990), entry O=C1Nc2ccc(F)cc2C12Nc1ccccc1-c1nnc(SCc3ccccc3F)nc1O2 (centres undefined) , value?
Reply: 30.8 µM (active)

Query: Request - read-out IC50 | tested on Genome polyprotein (dengue virus type 2, UniProt P29990) | compound `COC(=O)c1ccc(-c2ccc(C(c3c(C)[nH][nH]c3=O)c3c(C)[nH][nH]c3=O)o2)cc1`
Reply: > 100 µM (active)

Query: API: value(readout=IC50, system=Genome polyprotein (dengue virus type 2, UniProt P29990)) for record `COc1cccc(C(c2c(C)nn(-c3ccccc3)c2O)c2c(C)nn(-c3ccccc3)c2O)c1OC`
Reply: 61.1 µM (active)

Query: Reported IC50 for Genome polyprotein (dengue virus type 2, UniProt P29990), given `CSc1nc(SCC(=O)O)c2sc3nc(-c4ccccc4)c4c(c3c2n1)CCC4` ?
Reply: 48.9 µM (active)

Query: Lookup: IC50 / Genome polyprotein (dengue virus type 2, UniProt P29990) / `COc1c(OC(C)=O)ccc(/C=N\NC(=O)c2ccc(Br)cc2)c1[N+](=O)[O-]`
Reply: 96.5 µM (active)

Query: State its IC50 on Genome polyprotein (dengue virus type 2, UniProt P29990): CCOC(=O)c1c(NC(=O)C2C3C=CC(C3)C2C(=O)O)sc2c1CCC(CC)C2 (centres undefined)
Reply: 42.4 µM (active)

Query: So what IC50 did `COC(=O)c1c(C)c2c(C)cc3ccccn3c-2c1C(=O)OC` get with Genome polyprotein (dengue virus type 2, UniProt P29990)?
Reply: > 100 µM (active)
